# assayed target: T1, P5bHq
# T1 chain: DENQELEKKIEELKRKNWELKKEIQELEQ
# assay explanation: two-hybrid library CCNG1;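 further: natural log of median RNA to DNA barcode read ratio; higher means stronger binding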
measurement name: interaction score
Give bare numbers.

Example entries begin here.
>>> result_value("DKNQELKKKIEELKRKIWELKKENQELEQ [P12bHq]")
-0.597
>>> result_value("DKNQQLEQEIQELKQKNQELEWKIQELEQ [4H3189-bN]")
-2.13
>>> result_value("DEIQELEKEIEELERKNWELKKKNQELKQ [P3bHq]")
1.1
>>> result_value("DEIQELEKENEELERENWELEKEIQELEQ [P1bHq]")
-0.887
>>> result_value("DKIQELKKKIEELKRENWELEKENQELEQ [P4bHq]")
-1.27

Look up interaction score for the entries below, preserving their order.
1. DKNQELKKENEELERKIWELKKKIQELKQ [P10bHq]
2. DENQELEKKIEELKRKNWELKKEIQELEQ [P5bHq]
3. DENQELEKEIEELEREIWELEKKNQELKQ [P11bHq]
4. DKIQELKKKNEELKRKNWELKKKIQELKQ [P2bHq]

Out:
-0.0841
-1.33
0.352
0.419
